- MEASUREMENT_TARGET: human CRF1 receptor (Homo sapiens)
- Sequence (P34998 24-415): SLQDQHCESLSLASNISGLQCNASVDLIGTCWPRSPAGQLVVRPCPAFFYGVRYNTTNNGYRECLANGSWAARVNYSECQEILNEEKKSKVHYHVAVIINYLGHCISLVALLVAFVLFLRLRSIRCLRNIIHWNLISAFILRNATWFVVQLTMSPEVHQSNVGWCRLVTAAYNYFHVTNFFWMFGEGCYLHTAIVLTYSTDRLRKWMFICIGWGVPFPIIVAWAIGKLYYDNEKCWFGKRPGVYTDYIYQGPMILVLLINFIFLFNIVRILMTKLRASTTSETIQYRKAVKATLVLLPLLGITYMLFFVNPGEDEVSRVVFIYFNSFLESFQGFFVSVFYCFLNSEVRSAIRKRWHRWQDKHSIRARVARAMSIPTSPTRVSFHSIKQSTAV
- EXPERIMENT_DESCRIPTION: Measurement of CRF Binding Inhibitory Rate (receptor binding experiment with 125I-CRF)
- STATED_CONDITIONS: human CRF1 receptor expressing CHO cellular membrane fraction, 50 pM 125I-CRF, room temperature 1.5 hr, 0.05 nM to 10 μM of compound; read-out: IC50 values (CRF binding inhibition)
MEASUREMENT_NAME: IC50

Solved entries:
[
  {
    "MOLECULE": "CCC(c1ccc(Cl)c2nc3n(c12)CCCN3c1ccc(Cl)cc1Cl)C(F)F (stereo not drawn)",
    "IC50": "< 1 µM"
  },
  {
    "MOLECULE": "Cc1cc(OC(C)C)ccc1N1CCCn2c1nc1c(Cl)ccc(C(OC(F)F)C(F)(F)F)c12 (stereo not drawn)",
    "IC50": "< 1 µM"
  },
  {
    "MOLECULE": "CCC(CC)c1ccc(Cl)c2nc3n(c12)CCCCN3c1ncc(N)cc1C",
    "IC50": "< 1 µM"
  },
  {
    "MOLECULE": "CCN(CC)c1cccc2nc3n(c12)CC(O)CCN3c1ccc(Cl)cc1Cl (stereo not drawn)",
    "IC50": "< 1 µM"
  },
  {
    "MOLECULE": "CCCC(OC)c1ccc(Cl)c2nc3n(c12)CCCN3c1ccc(Cl)cc1Cl (stereo not drawn)",
    "IC50": "< 1 µM"
  },
  {
    "MOLECULE": "CCC(OC(C)=O)c1ccc(Cl)c2nc3n(c12)CCCN3c1ccccc1Cl (stereo not drawn)",
    "IC50": "< 1 µM"
  }
]

Requested field: IC50. Item: C=COC(CC)c1ccc(Cl)c2nc3n(c12)CCCN3c1ccc(Cl)cc1Cl (stereo not drawn)
< 1 µM

What IC50 value was documented for this molecule, CCC(c1ccc(Cl)c2nc3n(c12)CCCN3c1ccc(Cl)cc1Cl)N(C)S(C)(=O)=O (stereo not drawn) ?
< 1 µM

Query: IC50; subject: CCN(CC)c1cccc2nc3n(c12)CCCN=C3c1ccc(Cl)cc1Cl
< 1 µM
